Test system: Jurkat
Assay: cytotoxicity relative to DMSO, 18 h (ratio); higher = less cell death (drugs called cytotoxic fall below 1)
Conditions: 10000 nM
The following ranges of cytotoxicity define the classes used here: low band: < 0.8; middle band: ≥ 0.8 and < 0.9; high band: ≥ 0.9

molecule	label_value
O=C(C=Cc1cccc(S(=O)(=O)Nc2ccccc2)c1)NO	high band
CC(C)(CNC(=O)c1cccc(-c2noc(C(F)(F)F)n2)c1)c1coc(-c2ccccc2)n1	high band
COc1cccc2c1C(=O)c1c(O)c3c(c(O)c1C2=O)CC(O)(C(=O)CO)CC3OC1CC(N)C(O)C(C)O1 (stereo unspecified)	low band
Nc1cc(F)ccc1NC(=O)c1ccc(CNC(=O)C=Cc2cccnc2)cc1	high band

QUERY: In plain terms, what class is CCn1c(=O)c(-c2ccn[nH]2)cc2c(C)nc(N)nc21 ?
RESULT: high band

QUERY: What do you have for COc1c(OCCCN2CCOCC2)ccc2c3n(c(=NC(=O)c4cnc(N)nc4)nc12)CCN3 ?
RESULT: low band

QUERY: Further, for COC1CCC(N2C(=O)CNc3ncc(-c4ccc(C(C)(C)O)nc4)nc32)CC1 (stereo unspecified) ?
RESULT: low band

###

System: Jurkat
Test: cytotoxicity relative to DMSO, 18 h (ratio); higher = less cell death (drugs called cytotoxic fall below 1)
Conditions: 10000 nM
// reported cytotoxicity per item
Give the figure only, with no unit attached.

Some solved cases for reference:
compound	metric_name	endpoint_value
CCC(CO)Nc1nc(NCc2ccccc2)c2ncn(C(C)C)c2n1 (centres undefined)	cytotoxicity	0.957
O=C(O)C(=O)O.[NH-]C1CCCCC1[NH-].[Pt+2] (centres undefined)	cytotoxicity	1.1
CCOC(=O)Nc1cc(-c2ccc(C)c(NS(C)(=O)=O)c2)nn2c(C)nnc12	cytotoxicity	1.11
Cc1csc(-c2nnc(Nc3ccc(Oc4ncccc4-c4ccnc(N)n4)cc3)c3ccccc23)c1	cytotoxicity	0.823
O=C1C=CC(=O)C2=C1C1c3ccccc3C2c2ccccc21	cytotoxicity	0.839

QUERY: For CC(C)N(CC1OC(n2cnc3c(N)ncnc32)C(O)C1O)C1CC(CCc2nc3ccc(C(C)(C)C)cc3[nH]2)C1 (centres undefined) , what is its reported cytotoxicity?
RESULT: 1

QUERY: Another: Nc1ncn(C2CC(O)C(CO)O2)c(=O)n1 (centres undefined)
RESULT: 0.862

QUERY: Now give it for Cc1c(CN2CCN(C(=O)C(C)O)CC2)sc2c(N3CCOCC3)nc(-c3cnc(N)nc3)nc12 (centres undefined) too.
RESULT: 0.628

QUERY: Lookup Cn1cnc2c(F)c(Nc3ccc(Br)cc3F)c(C(=O)NOCCO)cc21
RESULT: 0.948

QUERY: Subsequent entry: O=C(O)C1(C(=O)O)CCC1.[NH2-].[NH2-].[Pt+2]
RESULT: 0.905

QUERY: Entry Cc1nc(Nc2ncc(C(=O)Nc3c(C)cccc3Cl)s2)cc(N2CCN(CCO)CC2)n1 please
RESULT: 0.882

QUERY: Try the compound CC(=O)Nc1cccc(-n2c(=O)n(C3CC3)c(=O)c3c(Nc4ccc(I)cc4F)n(C)c(=O)c(C)c32)c1
RESULT: 1.02

QUERY: Cc1sc2c(c1C)C(c1ccc(Cl)cc1)=NC(CC(=O)OC(C)(C)C)c1nnc(C)n1-2 (single isomer, unassigned; (+)) [(+)-JQ-1] , same question.
RESULT: 0.995

QUERY: Can you handle Cc1ncsc1-c1ccc(CNC(=O)C2CC(O)CN2C(=O)C(NC(=O)C2(C#N)CC2)C(C)(C)C)cc1 (centres undefined) next?
RESULT: 0.942

Source listed as the supplement of paper PMC11919725.
